B1: PPP2R2C (parent)
chain: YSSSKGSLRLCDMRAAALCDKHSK

Variants of: B1
method.summary: protein stability index of a GFP-peptide fusion (GPS, HEK-293T) (PSI 1-6); higher = more stable;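 also: lentivirally expressed fusions sorted by FACS into six bins by GFP to DsRed ratio, PSI derived from sequencing read proportions per bin multiplied by bin number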
condition.details: c terminus: a fixed tail appended
parameter.measured: protein stability index

Worked examples, 5 variants total:
>>> result("S2R")
2.98
>>> result("C19E")
1.62
>>> result("H22K")
1.54
>>> result("R9N")
3.45
>>> result("S2Y")
2.94

Need protein stability index, item `A15S` 2.31

Need protein stability index, item `L10V` 3.54

Need protein stability index, item `S23P` 1.42
